Give cytotoxicity at 10 µM for every item shown.
test: Toxicity liver stage against HepG2, at 10uM
Type: cell-based
Set-up: test concentration 10 uM, cell line HepG2-A16-CD81EGFP
conditions: human, HepG2-A16-CD81EGFP cells; read-out: INHIBITION

Below are worked cases with known answers.
INSERT INTO assay_data (molecule, observed_property, result) VALUES
  ('CCn1cnnc1CNC(=O)NC(C)c1cccs1 (centres undefined)', 'cytotoxicity at 10 µM', '-4.92%'),
  ('Cc1nn(C)c(C)c1C1CCCN1CC(=O)N(C)c1nccs1 (centres undefined)', 'cytotoxicity at 10 µM', '-1.32%'),
  ('CCN(C(=O)c1nc2c(s1)CCCN2S(C)(=O)=O)C(C)C', 'cytotoxicity at 10 µM', '3.99%'),
  ('c1ccc(-c2nccc(CNC3CCc4ncnn4C3)n2)cc1 (centres undefined)', 'cytotoxicity at 10 µM', '0.787%');

For each of the molecules below, note its cytotoxicity at 10 µM.
1. Cc1nonc1C1CCCN1C(=O)CCc1cc2n(n1)CCCNC2 (centres undefined)
2. CCOCC1COCCC12CCN(C(=O)C1=CCCC1)CC2 (centres undefined)

## Output
-5.65%
-2.35%
